molecular target: UBE2H; assay: reporter assay of Huesken 2005; conditions: siRNA; also: test concentration or dose not given here
Oligonucleotides are written 5' to 3', each unit as a sugar letter and its base; * is a phosphorothioate linkage, no mark a phosphodiester; rarer units and linkages stand in square brackets, end groups in braces. Plain capitals give the bases only. d = 2'-deoxy (DNA); r = 2'-OH (RNA)
Measured Metric: normalised inhibition (eCFP-eYFP dual reporter) (%)

Substance: sense rGrArArUrArCrArArGrCrArGrArArArArUrUrAdTdT / antisense rUrArArUrUrUrUrCrUrGrCrUrUrGrUrArUrUrCdTdT
Readout Number: 93.1

Substance: sense rGrGrArGrGrArGrGrCrGrCrUrGrArArArGrArAdTdT / antisense rUrUrCrUrUrUrCrArGrCrGrCrCrUrCrCrUrCrCdGdT
Readout Number: 91.9

Substance: sense rGrArUrArArArUrArCrCrCrUrUrUrCrArArArUdTdT / antisense rArUrUrUrGrArArArGrGrGrUrArUrUrUrArUrCdAdG
Readout Number: 102

Substance: sense rGrUrCrUrArGrArUrGrUrArArUrUrArArUrCrAdTdT / antisense rUrGrArUrUrArArUrUrArCrArUrCrUrArGrArCdAdC
Readout Number: 106

Substance: sense rArUrGrGrArCrCrArCrArArGrGrArArCrArCrCdTdT / antisense rGrGrUrGrUrUrCrCrUrUrGrUrGrGrUrCrCrArUdAdA
Readout Number: 34

Substance: sense rCrArGrArArArArUrUrArArArGrArGrUrArCrAdTdT / antisense rUrGrUrArCrUrCrUrUrUrArArUrUrUrUrCrUrGdCdT
Readout Number: 78.6

---

biological target: DENND5A; experiment: reporter assay of Huesken 2005; conditions: siRNA
Oligonucleotides are written 5' to 3', each unit as a sugar letter and its base; * is a phosphorothioate linkage, no mark a phosphodiester; rarer units and linkages stand in square brackets, end groups in braces. Plain capitals give the bases only. d = 2'-deoxy (DNA); r = 2'-OH (RNA)
Measured Metric: normalised inhibition (eCFP-eYFP dual reporter)

Substance: sense rUrGrArArGrGrArArUrGrCrCrGrCrArArUrArAdTdT / antisense rUrUrArUrUrGrCrGrGrCrArUrUrCrCrUrUrCrAdGdC
Result: 77.7%
--
Substance: sense rUrUrCrArUrUrGrArCrArArCrArArArArUrArAdTdT / antisense rUrUrArUrUrUrUrGrUrUrGrUrCrArArUrGrArAdAdG
Result: 97.8%
--
Substance: sense rArUrGrGrCrUrGrGrUrGrGrArGrUrArUrGrUrGdTdT / antisense rCrArCrArUrArCrUrCrCrArCrCrArGrCrCrArUdTdT
Result: 71.9%

---

biological target: TMEM63B; assay: reporter assay of Huesken 2005; details: siRNA
Oligonucleotides are given in HELM: sugar(base)linkage, 5' to 3'; d 2'-deoxyribose, r ribose, m 2'-O-methylribose, p phosphate. ss, as = sense and antisense strand
Measured Metric: normalised inhibition (eCFP-eYFP dual reporter) (%)

Substance: RNA1{r(C)p.r(A)p.r(G)p.r(G)p.r(A)p.r(C)p.r(A)p.r(A)p.r(C)p.r(C)p.r(A)p.r(U)p.r(G)p.r(C)p.r(A)p.r(C)p.r(A)p.r(A)p.r(G)p.d(T)p.d(T)}|RNA2{r(C)p.r(U)p.r(U)p.r(G)p.r(U)p.r(G)p.r(C)p.r(A)p.r(U)p.r(G)p.r(G)p.r(U)p.r(U)p.r(G)p.r(U)p.r(C)p.r(C)p.r(U)p.r(G)p.d(T)p.d(T)}$$$RNA1{StrandType:ss}|RNA2{StrandType:as}$
Endpoint Unit: %
Readout Number: 61.5
//
Substance: RNA1{r(C)p.r(A)p.r(U)p.r(G)p.r(A)p.r(C)p.r(C)p.r(U)p.r(A)p.r(C)p.r(A)p.r(G)p.r(U)p.r(A)p.r(U)p.r(C)p.r(A)p.r(C)p.r(C)p.d(T)p.d(T)}|RNA2{r(G)p.r(G)p.r(U)p.r(G)p.r(A)p.r(U)p.r(A)p.r(C)p.r(U)p.r(G)p.r(U)p.r(A)p.r(G)p.r(G)p.r(U)p.r(C)p.r(A)p.r(U)p.r(G)p.d(A)p.d(C)}$$$RNA1{StrandType:ss}|RNA2{StrandType:as}$
Endpoint Unit: %
Readout Number: 58.9
